- Test system: NCI-H460 lung
- test-details: NCI-60 one-dose screen, 48 h (100 = growth as untreated, 0 = no growth, -100 = all killed)
- assay-conditions: 10 µM unless noted
The panel holds about 83,000 compounds, 20% with a hit somewhere; the sample as a whole holds those more often.
Recorded measurements of growth, one per entry
assay-metric: growth (%)

compound	unit-descriptor	measured-result
Cc1ccc(P(=O)(O)O)cc1	%	108
C=CC[PH+](c1ccccc1)c1ccccc1.C=CC[PH+](c1ccccc1)c1ccccc1.[Pt+2].[S-]c1nc2ccccc2[nH]1.[S-]c1nc2ccccc2[nH]1	%	-6.83
CCOC(=O)P(=O)(OCC)OCC	%	116
N#CC(N)c1ccccc1 (stereo not given)	%	102
C/C(=N/OC(=O)N(C)C)c1ccc(Cl)c(Cl)c1	%	107
O=P1(N(CCCl)CCCl)NCCCO1 (stereo not given)	%	104
Cc1cc2c(cc1-c1ccnc(/C=C/C(=O)O)c1)C(C)(C)CCC2(C)C	%	85.3
CC1(C)C=Cc2c(ccc3c2[N+]([O-])=C2C3=C[C@@]34NC(=O)[C@]5(CCCN5C3=O)C[C@@H]4C2(C)C)O1	%	26.9
CCCCCCCCCCCCCCCCCC1OCC(COC(=O)O[C@@H](C(=O)O[C@H]2C[C@@]3(O)[C@@H](OC(=O)c4ccccc4)[C@@H]4[C@]5(OC(C)=O)CO[C@@H]5C[C@H](O)[C@@]4(C)C(=O)[C@H](OC(C)=O)C(=C2C)C3(C)C)[C@@H](NC(=O)c2ccccc2)c2ccccc2)O1 (stereo not given in full)	%	18.2
CC1(C)S[C@H]2CC[C@H]3OC(=O)[C@@H]1N23	%	110
